- measurement target: NRF2/Keap1 (Homo sapiens)
- Construct: full length NRF2 protein and full length Keap1 protein (Keap1 exists a dimer) are used
- Sequence (Q14145 whole entry): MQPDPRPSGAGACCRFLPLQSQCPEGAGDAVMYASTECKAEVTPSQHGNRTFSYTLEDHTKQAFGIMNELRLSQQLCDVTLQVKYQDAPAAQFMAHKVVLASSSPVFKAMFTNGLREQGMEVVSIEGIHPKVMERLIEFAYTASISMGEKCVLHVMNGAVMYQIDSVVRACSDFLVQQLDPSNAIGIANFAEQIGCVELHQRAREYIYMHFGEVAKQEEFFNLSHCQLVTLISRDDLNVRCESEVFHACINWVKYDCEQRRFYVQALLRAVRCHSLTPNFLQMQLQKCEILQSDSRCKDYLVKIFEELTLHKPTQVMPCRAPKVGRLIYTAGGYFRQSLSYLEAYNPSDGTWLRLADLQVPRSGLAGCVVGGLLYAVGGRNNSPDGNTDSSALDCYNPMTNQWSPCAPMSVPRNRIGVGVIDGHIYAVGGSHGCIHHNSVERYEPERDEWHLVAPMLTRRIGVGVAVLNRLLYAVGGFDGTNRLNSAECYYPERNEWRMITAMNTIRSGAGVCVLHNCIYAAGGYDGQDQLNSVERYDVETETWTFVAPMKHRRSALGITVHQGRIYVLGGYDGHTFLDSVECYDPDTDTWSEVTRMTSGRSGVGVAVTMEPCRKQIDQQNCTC
- assay remarks: NRF2-Keap1 TR-FRET Assay (full length NRF2 and full length Keap1)
- Assay type: binding
- condition: 25 nM Keap1-FlagHis, 50 nM biotin-NRF2 added
pIC50: −log10 of the molar value.
Kindly state pIC50 for each of the entries shown.

Illustrative cases are given below, each with its answer.
O=C(O)c1cnn(-c2cccc([C@H]3CCC[C@@H](C(=O)N4CCCCC4)C3)c2)c1C1CC1 (racemic) [Example 3]; 5.00 to 6.00
CN(C)C(=O)[C@H]1CCC[C@@H](c2cccc(-n3ncc(C(=O)O)c3C3CC3)c2)C1 (racemic) [Example 1]; 5.00 to 6.00
O=C(O)c1cnn(-c2cccc(C3CCC(n4ncc5c4CCCC5=O)C3)c2)c1C1CC1 (centres unmarked) [Example 15]; 5.00 to 6.00
O=C(O)c1cnn(-c2cccc([C@@H]3CCC[C@H](C(=O)N4CCCC5(CCCC5)C4)C3)c2)c1C1CC1 (racemic) [Example 4]; 5.00 to 6.00

Moving on to the next compound.
Task: May I ask what pIC50 has been recorded for O=C(O)c1cnn(-c2cccc(C3CCC(n4ncc5c4CCC5)C3)c2)c1C1CC1 (mixture of isomers) [Example 10] ?
Result: 4.00 to 5.00
